Give relative viability EC50 for every item shown.
- System: Calu-3
- protocolDetails: relative viability EC50 (midpoint between 100% and the lowest measured viability); higher = less toxic
- protocolConditions: 72 h

compound	valueKind	result
C=CC1=C(C)C2=CC3=NC(=C(CC(=O)O)C4=NC(=C(C)C4=C(O)O)C=c4[nH]c(c(C)c4CC)=CC1=N2)C(CCC(=O)O)C3C (configuration not stated)	relative viability EC50	> 10 µM
CCC(=O)N[C@@H]1Cc2ccccc2[C@H](c2ccccc2)C1	relative viability EC50	> 10 µM
Cc1ccc(C(=O)C(C)CN2CCCCC2)cc1 (configuration not stated)	relative viability EC50	> 10 µM
C[C@@]12CCc3occc3[C@H]1CC[C@@]13C[C@@H](CC[C@H]12)[C@@](O)(CO)C3	relative viability EC50	> 10 µM
COc1ccc(-c2ccc(=N)n(CCCC(=O)O)n2)cc1	relative viability EC50	> 10 µM

Each compound below has a recorded value; state its relative viability EC50.
1. O=C(O)C1=CCCNC1
2. NC1(C(=O)O)CC1
3. CC(C)(C)C(=O)CN1C(=O)[C@H](NC(=O)Nc2cccc(C(=O)O)c2)CN(C2CCCCC2)c2ccccc21 [nastorazepide]
4. Oc1ccc2c(c1)CC[C@H](c1ccccc1)[C@@H]2c1ccc(OCCN2CCCC2)cc1
5. Oc1ccc(-c2nc3cc(O)cc(Br)c3o2)cc1

Result:
["> 10 µM", "> 10 µM", "> 10 µM", "2.84 µM", "> 10 µM"]

Each compound below has a recorded value; state its relative viability EC50.
1. COc1cc(C(=O)OCCCN2CCCN(CCCOC(=O)c3cc(OC)c(OC)c(OC)c3)CC2)cc(OC)c1OC
2. CN1CC[C@H](c2c(O)cc(O)c3c(=O)cc(-c4ccccc4Cl)oc23)[C@H](O)C1
3. O=C(O)[C@H](Cc1ccccc1)NCc1ccc(Cl)cc1
4. c1cc2c(cc1C1CCCCC1)c1c3n2CCNC3CCC1 (configuration not stated)
5. CC[C@@H](C(=O)[C@@H](C)[C@@H](O)[C@H](C)[C@@H]1O[C@@H]([C@@H](CC)C(=O)O)CC[C@@H]1C)[C@H]1O[C@]2(C=C[C@@H](O)[C@]3(CC[C@@](C)([C@H]4CC[C@](O)(CC)[C@H](C)O4)O3)O2)[C@H](C)C[C@@H]1C

Result:
["> 10 µM", "0.138 µM", "> 10 µM", "2.22 µM", "0.36 µM"]

Each compound below has a recorded value; state its relative viability EC50.
1. COc1cc2ncnc(Nc3ccc(Oc4ccccc4)cc3)c2cc1OC
2. O=C(NC1(c2ccccc2)CC1)c1c(CN2CCC(N3CCCCC3)CC2)c(-c2cccc(C(F)(F)F)c2)nc2cc(Br)ccc12

Result:
["1.98 µM", "2.02 µM"]

---

Give cell viability for every item shown.
- Tested on: Caco-2
- protocolDetails: cell viability relative to DMSO; higher = less toxic
- protocolConditions: 72 h; 1000 nM
Answers are plain numbers, in %.

Answered examples (5):
molecule	testedOn	measuredNumber
Cn1cncc1[C@@](N)(c1ccc(Cl)cc1)c1ccc2c(c1)c(-c1cccc(Cl)c1)cc(=O)n2C [tipifarnib]	Caco-2	73.1
CC(=O)CC(=O)O [lithium-acetoacetate]	Caco-2	109
Cc1nccc2c1[nH]c1ccccc12 [harmane]	Caco-2	102
O=C(OC(C(F)(F)F)C(F)(F)F)N1CCC(C(O)(c2ccc3c(c2)OCO3)c2ccc3c(c2)OCO3)CC1 [KML29]	Caco-2	97
CNC(=N)NC(=O)Nc1c(C)cccc1C [lidamidine]	Caco-2	95.3

Each molecule below has a recorded value; state its cell viability.
1. N#C[C@H](O[C@@H]1O[C@H](CO[C@@H]2O[C@H](CO)[C@@H](O)[C@H](O)[C@H]2O)[C@@H](O)[C@H](O)[C@H]1O)c1ccccc1 [amygdalin]
2. O=C1c2cccc(O)c2C(=O)c2c(O)cccc21 [dantron]
3. O=[N+]([O-])c1cc([N+](=O)[O-])c(/C=C/c2ccc(Cl)c(Cl)c2)cc1/C=C/c1ccc(Cl)c(Cl)c1

Result:
92.8
91.2
102

Each molecule below has a recorded value; state its cell viability.
1. CN(C)CCOc1ccc(-c2nc(-c3ccncc3)c(-c3ccc4c(c3)CC/C4=N\O)[nH]2)cc1
2. CC(C)(C)[C@]1(O)CCN2C[C@H]3c4ccccc4CCc4cccc(c43)[C@@H]2C1 [butaclamol]
3. S=C=Nc1cccc(NC(=S)NCCCCNC(=S)Nc2cccc(N=C=S)c2)c1 [MRS-2578]
4. CO[C@@]1(NC(=O)CSCC#N)C(=O)N2C(C(=O)O)=C(CSc3nnnn3C)CS[C@@H]21 [cefmetazole]
5. CS(=O)(=O)c1ccc(C2=C(c3ccccc3)C(=O)OC2)cc1 [rofecoxib]

Result:
101
99.6
98.4
94.7
91.1

Each molecule below has a recorded value; state its cell viability.
1. NC1(C(=O)O)CC1 [ACPC]
2. c1cc2c(c(N3CCNCC3)c1)OCCO2 [eltoprazine]
3. N=C1CCCN1Cc1[nH]c(=O)[nH]c(=O)c1Cl [tipiracil]
4. Oc1cccc(Nc2ccc(Nc3cccc(O)c3)nn2)c1 [beta-amyloid-synthesis-inhibitor]
5. CS(=O)(=O)CCNCc1ccc(-c2ccc3ncnc(Nc4ccc(OCc5cccc(F)c5)c(Cl)c4)c3c2)o1 [lapatinib]

Result:
1: 87.7; 2: 108; 3: 98.1; 4: 101; 5: 77.3

Each molecule below has a recorded value; state its cell viability.
1. CCCCCCC[N+](CC)(CC)CCCCc1ccc(Cl)cc1 [clofilium]
2. COc1ccc(OC)c(CN(C(C)=O)c2cc(F)ccc2Oc2ccccc2)c1 [DAA-1106]
3. Nc1nc2c(ccc3ccccc32)s1 [SKA-31]
4. Cc1cc(C)c(S(=O)(=O)Nc2ccccc2C(F)(F)F)c(C)c1 [o-3M3FBS]
5. COC(=O)N1CC[C@@H]2[C@H]1CCC[C@@]2(O)C#Cc1cccc(C)c1 [mavoglurant]
6. CCC[C@@]1(CCc2ccccc2)CC(O)=C([C@H](CC)c2cccc(NS(=O)(=O)c3ccc(C(F)(F)F)cn3)c2)C(=O)O1 [tipranavir]
7. O=C(NC1(c2ccccc2)CC1)c1c(CN2CCC(N3CCCCC3)CC2)c(-c2cccc(C(F)(F)F)c2)nc2cc(Br)ccc12
8. NC(=O)C1=CN([C@@H]2O[C@H](COP(=O)(O)OP(=O)(O)OC[C@H]3O[C@@H](n4cnc5c(N)ncnc54)[C@H](O)[C@@H]3O)[C@@H](O)[C@H]2O)C=CC1 [coenzyme-I]

Result:
1: 108; 2: 108; 3: 106; 4: 97.7; 5: 98.4; 6: 103; 7: 98.8; 8: 98.7

---

- Tested on: Caco-2
- protocolDetails: cell viability relative to DMSO; higher = less toxic
- protocolConditions: 72 h; 100 nM
Give cell viability for every item shown.
Numbers only, in %.

Answered examples (5):
> print(dat)
                                   compound  quantityunit  measurednumber
1  CCC(NC(C)C)C(O)c1ccc(O)c(O)c1 (stereo not drawn)             %             118
2  COc1cc(C(=O)OCCCN2CCCN(CCCOC(=O)c3cc(OC)c(OC)c(OC)c3)CC2)cc(OC)c1OC             %            97.1
3  Cc1ccc(C(=O)C(C)CN2CCCCC2)cc1 (stereo not drawn)             %            94.9
4  O=C(NCCN1CCC2(CC1)C(=O)NCN2c1cccc(F)c1)c1ccc2ccccc2c1             %            95.2
5  CC(OC(=O)OC1CCCCC1)OC(=O)C1=C(CSc2nnnn2CCN(C)C)CS[C@@H]2[C@H](NC(=O)Cc3csc(N)n3)C(=O)N12 (stereo partly drawn)             %            96.8

Each compound below has a recorded value; state its cell viability.
1. COCCNC(=O)COc1ccc(OCCNC[C@H](O)COc2ccccc2)cc1
2. Cc1ccc(C(=O)Nc2ccc(Oc3cc4cnn(C)c4cc3-c3cn[nH]c3)c(F)c2)c(=O)n1-c1ccc(F)cc1
3. CN(C)CCOc1ccc(-c2nc(-c3ccncc3)c(-c3ccc4c(c3)CC/C4=N\O)[nH]2)cc1
4. Cc1ccc([N+](=O)[O-])cc1S(=O)(=O)N(C)/N=C/c1cnc2ccc(Br)cn12
5. CC1(COc2ccc3c(c2)ncn3-c2ccc3cccc(N4CCC(N)CC4)c3n2)COC1
6. Nc1ncnc2c1ncn2CCOCP(=O)(O)O
7. C#C[C@]1(O)CC[C@H]2[C@@H]3CCC4=CC(=O)CC[C@@H]4[C@H]3C(=C)C[C@@]21CC
8. CC(C)c1nc(N(C)S(C)(=O)=O)nc(-c2ccc(F)cc2)c1/C=C/[C@@H](O)C[C@@H](O)CC(=O)O

Result:
1: 94.7; 2: 102; 3: 99.1; 4: 57.9; 5: 102; 6: 90.2; 7: 98.7; 8: 100

Each compound below has a recorded value; state its cell viability.
1. CCOC(=O)N[C@@H]1CC[C@@H]2[C@@H](C1)C[C@H]1C(=O)O[C@H](C)[C@H]1[C@H]2/C=C/c1ccc(-c2cccc(F)c2)cn1
2. CO[C@H]1CC[C@@H](C(=O)c2ccc3nc4c(cc3c2)CCCO4)CC1
3. CC1=C(/C=C/C(C)=C/C=C/C(C)=C/C=C/C=C(C)/C=C/C=C(C)/C=C/C2=C(C)CCCC2(C)C)C(C)(C)CCC1
4. Cc1cc2nc3c(=O)[nH]c(=O)nc-3n(C)c2cc1C=O

Result:
[103, 104, 104, 96.4]

Each compound below has a recorded value; state its cell viability.
1. C[C@H](CCC(=O)O)[C@H]1CC[C@H]2[C@@H]3[C@H](O)C[C@@H]4C[C@H](O)CC[C@]4(C)[C@H]3C[C@H](O)[C@]12C
2. Cc1cc2c(cc1C(F)(F)F)N(C(=O)Nc1ccc(Oc3cccnc3C)nc1)CC2
3. O=C(c1ccc(F)cc1)C1CCN(CCn2c(=O)[nH]c3ccccc3c2=O)CC1
4. CN(C(=O)CN(CCO)CC(=O)N(C)C(C)(C)Cc1ccccc1)C(C)(C)Cc1ccccc1
5. N[C@@H]1CONC1=O
6. CS(=O)(=O)Nc1c(O)ccc2c1CCC[C@H]2C1=NCCN1

Result:
1: 95.3; 2: 104; 3: 95.6; 4: 102; 5: 100; 6: 101

Each compound below has a recorded value; state its cell viability.
1. CC(C)CNc1nc(-c2cccc3ncccc23)cn2c(-c3ccc(C(=O)NC4CC4)cc3)cnc12
2. CN1CCC(OC(c2ccccc2)c2ccccc2)CC1
3. Cc1ccc(C(=O)Cn2c3c(sc2=N)CCCC3)cc1

Result:
1. 93.1
2. 97.6
3. 97.1

Each compound below has a recorded value; state its cell viability.
1. OCc1cncc(F)c1
2. Cc1nccc2c1[nH]c1ccccc12

Result:
1. 102
2. 105
